Test system: Normal Kunming (KM) mice
Assay: multiple OGTT (mOGTT): hypoglycemic duration after a single administration
Type: in vivo
Conditions: single injection at the same dose (1.126 nmol), subcutaneous
Method: • 1. Methods: Normal Kunming (KM) mice (purchased from Guangdong Animal Center) were used for oral glucose tolerance test (OGTT) to obtain the hypoglycemic activity and durability of drug. […] The blood glucose meter and blood glucose test paper were from Bayer […]. […] Results • 2.1 single OGTTs: after a single administration, the mice were orally administered glucose once and measured the blood glucose from the tail blood at 0, 10, 20, 40, 60 and 120 min. […]
Attribute: Hypoglycemic duration
Just the number please, in days, no unit attached.

Some solved cases for reference:
{"SUBSTANCE": "2G4 series 33: disulfide-linked homodimer of monomer SEQ ID NO: 33 (HAEGTFTSDVSCYLEGQAAXEFIAWLVRGRG; not fully specified; disulfide-linked homodimer; Sequence is synthesized; (20)..(20) Xaa is 26Lys[N-e-(N-a-oleoyl-L-g-glutamyl)]; (31)..(31) N-terminal)", "MEASURED PARAMETER": "Hypoglycemic duration", "REPORTED VALUE": 16}
{"SUBSTANCE": "2G8 series 57: disulfide-linked homodimer of monomer SEQ ID NO: 57 (HAEGTFTCDVSSYLEGQAAXEFIAWLVRGRG; disulfide-linked homodimer; Sequence is synthesized; (20)..(20) Xaa is 26Lys[N-e-(N-a-palmitoyl-L-g-glutamyl)]; (31)..(31) N-terminal)", "MEASURED PARAMETER": "Hypoglycemic duration", "REPORTED VALUE": 5}

Now consider a different substance.
Prompt line: Which Hypoglycemic duration is listed for 2G2 series 8: disulfide-linked homodimer of monomer SEQ ID NO: 8 (HAEGTFTSDVCSYLEGQAAXEFIAWLVRGRG; not fully specified; disulfide-linked homodimer; Sequence is synthesized; (20)..(20) Xaa is Xaa is 26Lys[N-e-(N-a-Palmitoyl-g-glutamyl)]; (31)..(31) N-terminal) ?
Response line: 7

----------
Tested on: Normal Kunming (KM) mice
Assay: multiple OGTT (mOGTT): hypoglycemic duration after a single administration
Assay type: in vivo
Conditions: monomeric peptides, single injection at the same dose (1.126 nmol), subcutaneous
List of Hypoglycemic values.
Please respond with the number in days and leave the unit unwritten.

{"SUBSTANCE": "His-Ala-Glu-Gly-Thr-Phe-Thr-Ser-Asp-Val-Cys-Ser-Tyr-Leu-Glu-Gly-Gln-Ala-Ala-Lys[N-ϵ-(N-α-oleoyl-L-γ-glutamyl)]-Glu-Phe-Ile-Ala-Trp-Leu-Val-Arg-Gly-Arg-Gly-OH (HAEGTFTSDVCSYLEGQAAXEFIAWLVRGRG; oleoyl-γ-glutamyl on Lys; C-terminal acid; Sequence is synthesized; (20)..(20) Xaa is 26Lys[N-e-(N-a-oleoyl-L-g-glutamyl)]; (31)..(1) C-terminal) [G2 series 9]", "Hypoglycemic [days]": 3}

Turning to the following substance.
Prompt line: Reported Hypoglycemic for His-aAib-Glu-Gly-Thr-Phe-Thr-Ser-Asp-Val-Ser-Cys-Tyr-Leu-Glu-Gly-Gln-Ala-Ala-Lys[N-ϵ-(N-α-oleoyl)]-Glu-Phe-Ile-Ala-Trp-Leu-Val-Arg-Gly-Arg-Gly-NH2 (HXEGTFTSDVSCYLEGQAAXEFIAWLVRGRG; not fully specified; Aib; oleoyl on Lys side chain; C-terminal amide; Sequence is synthesized; (2)..(2) Xaa is aAib; (20)..(20) Xaa is 26Lys[N-e-(N-a-oleoyl-L-g-glutamyl)]; (31)..(31) N-terminal) [G4 series 36] : what is it?
Response line: 8

----------
Tested on: Normal Kunming (KM) mice
Test: multiple OGTT (mOGTT): hypoglycemic duration after a single administration
Type: in vivo
Conditions: monomeric peptides, single injection at the same dose (1.126 nmol), subcutaneous
Hypoglycemic values by entry
Answer format reminder: number followed by unit.

{"SUBSTANCE": "His-aAib-Glu-Gly-Thr-Phe-Thr-Ser-Asp-Val-Ser-Cys-Tyr-Leu-Glu-Gly-Gln-Ala-Ala-Lys[N-ϵ-(N-α-Palmitoyl-L-γ-glutamyl)]-Glu-Phe-Ile-Ala-Trp-Leu-Val-Arg-Gly-Arg-Gly-NH2 (HXEGTFTSDVSCYLEGQAAXEFIAWLVRGRG; Aib; palmitoyl-gamma-Glu on Lys; C-terminal amide; Sequence is synthesized; (2)..(2) Xaa is aAib; (20)..(20) Xaa is 26Lys[N-e-(N-a-palmitoyl-L-g-glutamyl)]; (31)..(31) N-terminal) [G6 series 48]", "Hypoglycemic": "7 days"}

Consider now this further substance.
Prompt line: Hypoglycemic lookup needed for His-Ala-Glu-Gly-Thr-Phe-ThrCys-Asp-Val-Ser-Ser-Tyr-Leu-Glu-Gly-Gln-Ala-Ala-Lys[N-ϵ-(N-α-oleoyl-L-γ-glutamyl)]-Glu-Phe-Ile-Ala-Trp-Leu-Val-Arg-Gly-Arg-Gly-OH (HAEGTFTCDVSSYLEGQAAXEFIAWLVRGRG; oleoyl-gamma-Glu on Lys; C-terminal acid; Sequence is synthesized; (20)..(20) Xaa is 26Lys[N-e-(N-a-oleoyl-L-g-glutamyl)]; (31)..(31) C-terminal) [G8 series 58] , thanks.
Response line: 1 days

----------
System: Normal Kunming (KM) mice
Assay: multiple OGTT (mOGTT): hypoglycemic duration after a single administration
Type: in vivo
Conditions: single injection at the same dose (1.126 nmol), subcutaneous
No end group written: not given here. PEG = not defined here
# Hypoglycemic duration per record follows
Kindly answer with a numeric value in days, unit omitted.

{"SUBSTANCE": "2G9 series 71: disulfide-linked homodimer of PEG-modified monomer SEQ ID NO: 71 (HAEGTFTSDVSCYLEGQAAKEFIAWLVRGR-{NH2-PEG}; reading uncertain; also: disulfide-linked homodimer)", "REPORTED VALUE": 5}
{"SUBSTANCE": "2G5 series 43: disulfide-linked homodimer of monomer SEQ ID NO: 43 (HXEGTFTSDVSCYLEGQAAXEFIAWLVXGRG; disulfide-linked homodimer; Sequence is synthesized; (2)..(2) Xaa is bAib; (20)..(20) Xaa is 26Lys[N-e-(N-a-palmitoyl-L-g-glutamyl)]; (28)..(28) Xaa is 26Lys[N-e-(N-a-palmitoyl-L-g-glutamyl)]; (31)..(31) N-terminal)", "REPORTED VALUE": 7}

Could you now consider this next substance?
Prompt line: What value of measured Hypoglycemic duration is listed for 2G6 series 49: disulfide-linked homodimer of monomer SEQ ID NO: 49 (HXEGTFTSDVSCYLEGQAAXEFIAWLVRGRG; disulfide-linked homodimer; Sequence is synthesized; (2)..(2) Xaa is bAib; (20)..(20) Xaa is 26Lys[N-e-(N-a-oleoyl-L-g-glutamyl)]; (31)..(31) N-terminal) ?
Response line: 17

----------
Test system: Normal Kunming (KM) mice
Assay: multiple OGTT (mOGTT): hypoglycemic duration after a single administration
Format: in vivo
Details: monomeric peptides, single injection at the same dose (1.126 nmol), subcutaneous
MEASURED PARAMETER: Hypoglycemic

Prompt line: Endpoint output: Hypoglycemic of His-Ala-Glu-Gly-Thr-Phe-Thr-Ser-Asp-Val-Ser-Cys-Tyr-Leu-Glu-Gly-Gln-Ala-Ala-Lys[N-ϵ-(N-α-oleoyl)]-Glu-Phe-Ile-Ala-Trp-Leu-Val-Arg-Gly-Arg-Gly-OH (HAEGTFTSDVSCYLEGQAAXEFIAWLVRGRG; not fully specified; oleoyl on Lys; C-terminal acid; Sequence is synthesized; (20)..(20) Xaa is 26Lys[N-e-(N-a-oleoyl-L-g-glutamyl)]; (31)..(31) C-terminal) [G4 series 32] . Value?
Response line: 5 days

----------
Test system: Normal Kunming (KM) mice
Test: multiple OGTT (mOGTT): hypoglycemic duration after a single administration
Assay type: in vivo
Conditions: single injection at the same dose (1.126 nmol), subcutaneous
Non-standard residues stand in square brackets, D forms with d. No end group written: not given here. bAib = not defined here
MEASURED PARAMETER: Hypoglycemic duration (days)
All answers are understood in days, so give the number only.

Sample answers from the record:
{"SUBSTANCE": "2G4 series 39: disulfide-linked homodimer of monomer SEQ ID NO: 39 (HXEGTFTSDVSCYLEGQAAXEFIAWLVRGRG; disulfide-linked homodimer; Sequence is synthesized; (2)..(2) Xaa is bAla; (20)..(20) Xaa is 26Lys[N-e-(N-a-oleoyl-L-g-glutamyl)]; (31)..(31) N-terminal)", "REPORTED VALUE": 16}
{"SUBSTANCE": "2G8 series 68: disulfide-linked homodimer of monomer SEQ ID NO: 68 (HXEGTFTCDVSSYLEGQAAXEFIAWLVRGRG; disulfide-linked homodimer; Sequence is synthesized; (2)..(2) Xaa is bAla; (20)..(20) Xaa is 26Lys[N-e-(N-a-oleoyl-L-g-glutamyl)]; (31)..(31) N-terminal)", "REPORTED VALUE": 7}

Prompt line: Dear colleague, I am looking for the recorded Hypoglycemic duration of the following substance: 2G5 series 44: disulfide-linked homodimer of monomer SEQ ID NO: 44 (HXEGTFTSDVSCYLEGQAAXEFIAWLVXGRG; disulfide-linked homodimer; Sequence is synthesized; (2)..(2) Xaa is bAla; (20)..(20) Xaa is 26Lys[N-e-(N-a-palmitoyl-L-g-glutamyl)]; (28)..(28) Xaa is 26Lys[N-e-(N-a-palmitoyl-L-g-glutamyl)]; (31)..(31) N-terminal)
Response line: 6

Prompt line: Entry under review: 2G8 series 67: disulfide-linked homodimer of monomer SEQ ID NO: 67 (H[bAib]EGTFTCDVSSYLEGQAAKEFIAWLVR[bAib]R; reading uncertain; also: disulfide-linked homodimer of two chains, disulfide at 8, other end not in the chain) . Reported Hypoglycemic duration?
Response line: 3

Prompt line: Name the reported Hypoglycemic duration value associated with the substance 2G4 series 31: disulfide-linked homodimer of monomer SEQ ID NO: 31 (HXEGTFTSDVCSYLEGQAAXEFIAWLVRGRG; not fully specified; disulfide-linked homodimer; Sequence is synthesized; (2)..(2) Xaa is bAla; (20)..(20) Xaa is 26Lys[N-e-(N-a-oleoyl-L-g-glutamyl)]; (31)..(31) N-terminal)
Response line: 15

Prompt line: Item under review: 2G8 series 59: disulfide-linked homodimer of monomer SEQ ID NO: 59 (HAEGTFTCDVSSYLEGQAAXEFIAWLVRGRG; disulfide-linked homodimer; Sequence is synthesized; (20)..(20) Xaa is 26Lys[N-e-(N-a-oleoyl-L-g-glutamyl)]; (31)..(31) N-terminal) . Reported Hypoglycemic duration?
Response line: 5

Value source: patent US20240150423A1
